Sourced from patent US10155727B2

What IC50 was measured for each of the following?
# Target: hERG receptor (Homo sapiens (Human), UniProt Q12809)
# Sequence (Q12809 whole entry): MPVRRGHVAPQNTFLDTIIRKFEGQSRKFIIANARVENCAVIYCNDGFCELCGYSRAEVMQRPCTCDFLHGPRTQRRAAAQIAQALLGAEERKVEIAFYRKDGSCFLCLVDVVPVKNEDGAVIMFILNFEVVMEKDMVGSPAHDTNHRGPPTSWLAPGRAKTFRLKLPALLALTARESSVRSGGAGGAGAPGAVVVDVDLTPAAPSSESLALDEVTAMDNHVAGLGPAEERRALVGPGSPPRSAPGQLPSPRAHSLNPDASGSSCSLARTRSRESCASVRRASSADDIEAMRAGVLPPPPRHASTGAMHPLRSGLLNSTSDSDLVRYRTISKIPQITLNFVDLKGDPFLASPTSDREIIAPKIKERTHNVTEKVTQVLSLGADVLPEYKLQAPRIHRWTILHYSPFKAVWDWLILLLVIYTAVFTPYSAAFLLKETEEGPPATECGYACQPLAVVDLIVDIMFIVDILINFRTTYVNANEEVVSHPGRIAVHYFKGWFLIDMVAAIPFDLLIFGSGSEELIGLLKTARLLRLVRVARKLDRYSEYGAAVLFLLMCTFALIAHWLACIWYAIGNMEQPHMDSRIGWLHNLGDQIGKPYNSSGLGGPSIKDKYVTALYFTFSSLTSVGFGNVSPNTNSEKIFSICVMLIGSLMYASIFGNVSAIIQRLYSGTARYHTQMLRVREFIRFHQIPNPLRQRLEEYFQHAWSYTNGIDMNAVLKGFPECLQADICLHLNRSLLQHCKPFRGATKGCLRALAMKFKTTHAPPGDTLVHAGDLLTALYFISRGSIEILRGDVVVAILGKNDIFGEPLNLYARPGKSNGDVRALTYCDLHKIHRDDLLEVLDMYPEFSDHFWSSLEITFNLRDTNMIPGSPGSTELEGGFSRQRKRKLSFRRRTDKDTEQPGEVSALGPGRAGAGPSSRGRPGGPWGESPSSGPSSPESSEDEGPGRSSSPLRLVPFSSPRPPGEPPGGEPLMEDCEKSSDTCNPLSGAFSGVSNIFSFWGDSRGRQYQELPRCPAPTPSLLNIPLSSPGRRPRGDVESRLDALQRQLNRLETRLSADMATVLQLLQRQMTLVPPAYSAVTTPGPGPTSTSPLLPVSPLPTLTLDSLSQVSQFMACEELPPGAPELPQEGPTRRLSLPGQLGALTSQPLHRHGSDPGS
# Test Method Notes: HERGBD: inhibition of specific [3H]-Dofetilide binding to the hERG receptor
# Condition Info: [3H]-Dofetilide binding, membranes of HEK cells with human ERG receptor; read-out: IC50

Compound: CCn1cncc1Cn1cc(-c2ccc(Cl)c(C(F)F)c2)cn1 [Example 95]
IC50: 6.36 µM
//
Compound: Cc1cc(-c2cnn(Cc3ccn(C)n3)c2)ccc1Cl [Example 58, Succinate]
IC50: 12.6 µM
//
Compound: Cn1ccc(Cn2cc(-c3ccc(Cl)c(Cl)c3)cn2)n1 [Example 63]
IC50: 10.8 µM
//
Compound: COc1cc(F)ccc1-c1cnn(Cc2cc(C)nn2C)c1 [Example 68, Succinate]
IC50: 93.6 µM
//
Compound: COc1cc(F)ccc1-c1cnn(Cc2ccn(C)n2)c1 [Example 67, Succinate]
IC50: 63.3 µM
//
Compound: Cc1cc(Cn2cc(-c3ccc(Cl)c(C(F)F)c3)cn2)n(C)n1 [Example 25]
IC50: 49.6 µM

Look up IC50 for the entries below, preserving their order.
1. Cc1cc(Cn2cc(-c3ccc(Cl)c(OC(F)F)c3)cn2)n(C)n1 [Example 3]
2. Cn1nccc1Cn1cc(-c2ccccc2)cn1 [Example 87]

OUT:
1: 23.3 µM; 2: > 100 µM

Entry under test: CCCc1cc(Cn2cc(-c3ccc(Cl)c(OC(F)F)c3)cn2)n[nH]1 [Example 15] . Its IC50 was 7.93 µM
